// merged dataset of log10 Ki values, system = Carbonic anhydrase 1 (Homo sapiens), multiple refs
A value of 2 here means Ki of 100 in µM, since values are log10.

>  <chemical_structure>
Nc1c(Br)cc(S(N)(=O)=O)cc1I

>  <log10 Ki>
1.10

$$$$
>  <chemical_structure>
NS(=O)(=O)c1cccc(NC(=O)N2CCCCC2)c1

>  <log10 Ki>
-0.75

$$$$
>  <chemical_structure>
Cl.NS(=O)(=O)c1ccc(CNCc2ccccc2)cc1

>  <log10 Ki>
-1.52

$$$$
>  <chemical_structure>
CC(C)(C)OC(=O)N(CCCN)CCCCN(CCCN)C(=O)OC(C)(C)C

>  <log10 Ki>
2.14

$$$$
>  <chemical_structure>
CC(C)(C)c1ccc(/C=N/CCc2ccc(S(N)(=O)=O)cc2)cc1

>  <log10 Ki>
-0.18

$$$$
>  <chemical_structure>
O=C(NCCNCCCNCCNC(=O)C(F)(F)F)C(F)(F)F

>  <log10 Ki>
2.09

$$$$
>  <chemical_structure>
NS(=O)(=O)c1ccc(C[n+]2c(-c3ccccc3)cc(-c3ccccc3)cc2-c2ccccc2)cc1

>  <log10 Ki>
2.45

$$$$
>  <chemical_structure>
Cc1cc(-c2ccccc2)cc(C)[n+]1CC(=O)Nc1ccc(S(=O)(=O)Nc2cccc(S(N)(=O)=O)c2)cc1

>  <log10 Ki>
-1.42

$$$$

log10 Ki value, target or system Carbonic anhydrase 1 (Homo sapiens), for NS(=O)(=O)c1cc(C(=O)N[C@@H](Cc2c[nH]cn2)C(=O)N[C@@H](Cc2ccccc2)C(=O)O)ccc1Cl : -1.57

Measured on Carbonic anhydrase 1 (Homo sapiens), Cc1cc(S(N)(=O)=O)c(S/C(=N\NS(=O)(=O)c2ccccc2)c2ccccc2)cc1Cl has a documented log10 Ki of 2.05

###

pKi: −log10 of the molar value.
Hi, quick share: literature pKi data for Carbonic anhydrase 1 (Homo sapiens), several sources combined.
Class assignment keyed on pKi, ranges low class = under 6, middle class = from 6 up to 7, high class = 7 and over

Reference set, count: 2
>  <compound>
CCOC(=O)N1CCN(C(=S)SCC(=O)Nc2nc3ccc(S(N)(=O)=O)cc3s2)CC1

>  <class>
low class

$$$$
>  <compound>
CC(CN(C)C)OC(=O)c1cccc(S(=O)(=O)/N=c2/sc(S(N)(=O)=O)nn2C)c1 (stereo not given)

>  <class>
high class

$$$$

Which bin should I file CCN(CC)CCC(=O)N(CCc1ccc(S(N)(=O)=O)cc1)Cc1ccccc1 under?
middle class

Which class holds O=C(Nc1ccc(C(=O)Nc2ccc(S(=O)(=O)N3CCC[C@@H]3C(=O)NO)cc2)cc1)OCc1ccccc1 ?
low class

Which category fits this record: O=c1[nH]cc(CO)c(=O)[nH]1
low class

###

We begin with pKi values for Carbonic anhydrase 1 (Homo sapiens, UniProt P00915), as collected from the published literature.
pKi: −log10 of the molar value.
Decision: pKi compared against 6; not below it gives fulfilled, below it gives not fulfilled.

>  <chemical_structure>
Cc1cc(NS(=O)(=O)c2ccc(Nc3ccnc(SCC(=O)c4ccc(Cl)cc4)n3)cc2)no1

>  <class>
not fulfilled

$$$$
>  <chemical_structure>
O=C(NO)[C@H]1[C@@H](OCc2ccccc2)CCN1S(=O)(=O)c1ccc(Cl)c(Cl)c1

>  <class>
not fulfilled

$$$$
>  <chemical_structure>
NCC(=O)NCC(=O)Nc1ccc(S(=O)(=O)Nc2cccc(S(N)(=O)=O)c2)cc1

>  <class>
fulfilled

$$$$

Quick check, pKi >= 6? CC1=NN(c2ccc(Cl)cc2Cl)C(=O)/C1=N/Nc1ccc(S(N)(=O)=O)cc1
not fulfilled

In plain terms: is recorded pKi at least 6 for NS(=O)(=O)c1ccc(CCNC(=O)CN(CCOCCOCCN(CC(=O)O)CC(=O)NCCc2ccc(S(N)(=O)=O)cc2)CC(=O)O)cc1 ?
fulfilled

Could you tell me if the measured pKi of CC(C)(C)OC(=O)NS(=O)(=O)NCc1ccccc1 reaches 6 or more?
not fulfilled

Given the entry NS(=O)(=O)c1ccc(CNC(=S)N[C@@H]2O[C@H](CO)[C@@H](O[C@H]3O[C@H](CO)[C@@H](O)[C@H](O)[C@H]3O)[C@H](O)[C@H]2O)cc1 , answer whether its pKi meets or surpasses 6.
not fulfilled

Does the compound NC(=O)C[C@H](NC(=O)c1ccc(S(N)(=O)=O)cc1)C(=O)O have recorded pKi that is 6 or more?
fulfilled
